assay_remarks: solvent given as SMILES
run_parameters: in CN(C)C=O
observable: emission maximum (nm)
Write the answer as a number in nm, unit excluded.

compound	value_measured
CC(C)(C)c1ccc2c(c1)c1cc(C(C)(C)C)ccc1n2-c1ccccc1-c1nc(-c2ccccc2-n2c3ccc(C(C)(C)C)cc3c3cc(C(C)(C)C)ccc32)nc(-c2ccccc2P(=O)(c2ccccc2)c2ccccc2)n1	546.04
O=C(O)c1ccc2ccc3cccc4ccc1c2c34	388
CC1(C)Oc2c(c3nc4ccccc4nc3c3ccccc23)CC1Br (stereo unspecified)	458.3
CN(C)c1ccc(C#Cc2ccccc2)cc1	418.5
CCOC(=O)c1ccccc1-c1c2ccc(=[N+](CC)CC)cc-2oc2cc(N(CC)CC)ccc12	585
CCN(CC)c1ccc2cc(/C=C(\C#N)c3nc4ccccc4s3)c(=O)oc2c1	605
CCCCCCC(CCCCCC)N1C(=O)c2cccc3c(-c4ccc(-c5ccc(OC)cc5)cc4)ccc(c23)C1=O	583.4
OCC1O[C@@H](Cc2cc(O)cc(/C=C/c3ccc(O)c(O)c3)c2)[C@H](O)[C@@H](O)[C@@H]1O (stereo partly specified)	378

So what does the record say about emission maximum for CCCCOc1ccc(-c2oc3c(-c4ccc(OCCCC)cc4)c4n(c3c2-c2ccc(OCCCC)cc2)[B-](F)(F)[N+]2=Cc3c(-c5ccc(OCCCC)cc5)c5oc(-c6ccc(OCCCC)cc6)c(-c6ccc(OCCCC)cc6)c5n3[B-](F)(F)[N+]2=C4)cc1 ?
672

Next compound: CN(C)c1ccc(/C=C2\CC/C(=C\c3ccc(C#N)cc3)C2=O)cc1
740
